# Experiment: One-photon and two-photon fluorescence titration with free copper(I) ions
# Type: binding
# Cond: HEPES 20 mM, thiourea 100 μM, pH 7.0; 1:1 binding model; read-out: Dissociation constant (Kd) for the copper(I) ion, two-photon process
Property Name: pKd
Note on units: pKd is unitless, being -log10 of a concentration expressed in mol/L.

Q: Give its pKd value. Item: CCSCCSCCN(CCSCCSCC)c1ccc(NC(=O)CN(C)c2ccc3cc(C(C)=O)ccc3c2)cc1 [Chemical Formula 2]
Ans: 10.70

###

# Experiment: Dissociation constant for the multiphoton process of the zinc(II) ion-selective probe
# Type: binding
# Cond: Zn(II) ions; read-out: Dissociation constant (KdTP) for the multiphoton process
Property Name: pKd
In textbook form, pKd equals minus log to base ten of the concentration in mol/L.

Q: Need pKd, item CC(=O)c1ccc2cc(N(C)CC(=O)Nc3ccc(NCCN(Cc4ccccn4)Cc4ccccn4)cc3)ccc2c1 [Preparation Example 2]
Ans: 8.96
